Please go through the items and note down their growth inhibition.
- Assay Details: NCI Yeast Anticancer Drug Screen. Data for the rad52 strain (AID 147);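 note: 0% = growth of vehicle-treated control cultures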
- Run Parameters: S. cerevisiae rad52 mutant growth inhibition; at 100.0 µM; stronger effect = higher value
- Protocol: Growth inhibition of yeast strains with defined genetic alterations is measured as a screen for potential anti-cancer activity. Selected strains with alterations in DNA damage repair or cell cycle control were exposed to compounds and growth inhibition was measured relative to vehicle treated controls. The strain used in this assay is rad52
About 79,000 compounds went through this panel and 15% of them were active in at least one assay; those are over-represented in the sample as a whole.
Please respond with the number in % and leave the unit unwritten.

// "O=C(CCCN1CCC2(CC1)CC(=O)N(N1CCCCCC1)C2=O)c1ccc(F)cc1" : growth inhibition value = 65

growth inhibition in this record for "CSC(=S)N/N=C(\C)c1cccc(C)n1" : 97

growth inhibition recorded for this compound, "O=CNc1ccc2c(c1)C(=O)c1ccccc1-2" , is 97

Given item CCCCN1C(=O)N(c2ccc(OCC)cc2)C2N(CCCC)C1C(C)(C)C2(C)C (stereo unspecified) , the value recorded as its growth inhibition is 86

Reported growth inhibition for "NC(=S)N/N=C\c1nccc2ccccc12" was 99

// growth inhibition lookup, compound = "CC(=O)Nc1ccc(/C=C(\C#N)c2ccc(C)cc2)cc1" , result: 1

# growth inhibition of "CCCCOC(=O)N[C@H]1CCc2cc(OC)c(OC)c(OC)c2-c2ccc(SC)c(=O)cc21" = 77

Memo: "Cc1nn(-c2cc(Cl)ccc2[N+](=O)[O-])c(C)c1Cl" , reported growth inhibition: 2

// growth inhibition lookup, compound = CC1(Cl)CC(O)C2(CC1Br)C1(C)OC1C1OC1(Br)C2(C)C (stereo unspecified) , result: 98

Kindly note the recorded growth inhibition for "O=c1ssc2ncccc12" , which is 99

Sure, the documented growth inhibition for "COC(=O)C1=C(C)NC(C)=C(C(=O)OC)C1c1cccc(/[N+]([O-])=C/c2ccccc2)c1" is 90

This collection of values is drawn from PubChem BioAssay (NCI).
